Listed sequences paired with reported Chip Fluorescence (max)
Tested on: GST-tagged Cn
Test: PEPperPRINT peptide microarray binding assay with GST-tagged Cn
Settings: GST-tagged Cn, max over the spots on the chip (two locations)
Source text: We then estimated in-silico the binding strength of the various peptides to Cn by template-based docking followed by flexible backbone refinement using Modeller and PepCrawler (Figs 4 and S4). […] Fig 4 Medium-throughput filtering by structural modeling and microarray screening. […] (f) Scatter plot of the sequence likelihood (normalized by length, higher is better) against fluorescence level (higher is better, see Methods for details of the data analysis). […]

Record sequence	Chip Fluorescence (max)
ASEANPEITITPAELP [SeqRBMlowT_410]	1.116
SAGAGVQIVITVTEAE [SeqRBMlowT_1437]	1.271
PGLYDNALGMESFTLS [SeqRBMlowT_2805]	1.201
KAYMNPYMQFIDGGRR [SeqRBMlowT_4720]	1.204
RQPGTALLELGGHKKQ [SeqRBMlowT_7758]	1.043
NVSSSPRVTLKIPQHR [SeqRBM_7185]	1.102

---

Listed sequences paired with reported Chip Fluorescence (max)
test system: GST-tagged Cn; test: PEPperPRINT peptide microarray binding assay with GST-tagged Cn; conditions: GST-tagged Cn, max over the spots named in Location on chip
Measurement label: Chip Fluorescence (max)

Record sequence	Measurement label	Endpoint value
DTYGTASLARELPSPK [Seqshuffled_9914]	Chip Fluorescence (max)	1.867
REYINPKMHFHFLNTV [SeqRBM_9087]	Chip Fluorescence (max)	1.764
NVLRISSARPDNRGVY [SeqCEACAM5_Musca_domestica]	Chip Fluorescence (max)	1.598
APSKITEVVVHECEVL [SeqRBM_4402]	Chip Fluorescence (max)	1.576
TFWTNPQYTITLEEPD [SeqRBMlowT_2235]	Chip Fluorescence (max)	1.679
TFWTNPQFRLKVVDPD [SeqRBMlowT_7375]	Chip Fluorescence (max)	1.609
LKDEIPEVRLNIISSL [SeqRBMlowT_1013]	Chip Fluorescence (max)	1.476
KVMAVPRISRSPTQVL [SeqRBM_6937]	Chip Fluorescence (max)	1.835
VEEAFPQIIISAEELP [SeqTRESK_Tarsius_syrichta]	Chip Fluorescence (max)	1.401
TFWMNPQFKVKLEEVD [SeqRBMlowT_6848]	Chip Fluorescence (max)	1.645
LNLKIPIVLLNIISAI [SeqRBM_9387]	Chip Fluorescence (max)	1.375

---

system: GST-tagged Cn; assay: PEPperPRINT peptide microarray binding assay with GST-tagged Cn; conditions: GST-tagged Cn, mean over the spots on the chip (two locations)

Record sequence	Chip Fluorescence (mean)
TFWTNPQYRVKLEEPD [SeqRBMlowT_2230]	-0.4829
RNPGTFPLTLEGHKKQ [SeqRBMlowT_6333]	-0.4106
LSLKIPEISIQDMTAQ [SeqFLNA_Macaca_mulatta]	-0.12
LCVTGRERIAEDWLRP [Seqrandom_9974]	0.7765
KAYMNPYMQFIDGGRR [SeqRBMlowT_4720]	-0.1516
QFKKSNLLGFMAASGD [Seqshuffled_9600]	0.1872
SLKLWMLLGIEAFTLS [SeqRBM_4562]	0.3817
RTLINPSVAFLYMGSR [SeqRBM_5357]	-0.7287
SQMAAPAINIDFAPTN [SeqRBMlowT_314]	-0.1818
TFWTNPQFKVKLEEVD [SeqRBMlowT_284]	-0.1705
GGPGTPGRQGGHLAPS [SeqRBMlowT_9820]	-0.2851
SSSSLPTFQFSTPATL [SeqRBM_7341]	-1.213

---

System: GST-tagged Cn
Experiment: PEPperPRINT peptide microarray binding assay with GST-tagged Cn
Details: max over the spots listed under Location on chip
Source text: We then estimated in-silico the binding strength of the various peptides to Cn by template-based docking followed by flexible backbone refinement using Modeller and PepCrawler (Figs 4 and S4). […] Fig 4 Medium-throughput filtering by structural modeling and microarray screening. […] (f) Scatter plot of the sequence likelihood (normalized by length, higher is better) against fluorescence level (higher is better, see Methods for details of the data analysis). […]
Chip Fluorescence (max) below 3 gives No; Chip Fluorescence (max) at or above it gives Yes.

Record sequence	Category
TFWTNPQFRLKIPQVD [SeqRBMlowT_93]	Yes
KAYINPFMQFIDGGRR [SeqRBMlowT_549]	Yes
TFWSNPQYKITLEEPD [SeqRBMlowT_9677]	Yes
KAYMCPYMDFQDGGRR [SeqRBM_4270]	Yes
TFWTNPQFRIHLEEED [SeqRBMlowT_251]	No
TYWTNPQFRVTLEDPD [SeqRBMlowT_4395]	Yes
GGLRSDSVTMIDQGAY [SeqRBM_2699]	No
KAYMCPFMSFIDGGQR [SeqRBMlowT_3665]	No
KAYMSPFMSFIDGGRR [SeqRBMlowT_6614]	No
LKDEFPEVRLNIISSL [SeqRBMlowT_1023]	No
TFWTNPQYRITLEEED [SeqRBMlowT_1109]	Yes
RAYINPFMQFQIGGNH [SeqRBMlowT_4074]	No
VSLYEDALGLGQFSLS [SeqRBM_4294]	No
RNPGTALLELRGHSAS [SeqRBMlowT_6200]	No
TFWTNPQFKLKLLDPD [SeqRBMlowT_4269]	Yes
ADEAIPEIVISPPELP [SeqRBMlowT_1959]	Yes
KKMSPPCIDVHPLDSA [SeqRBM_2282]	No
VFAQEDYFLFPVILKE [Seqrandom_9943]	Yes
GSMLVPAINIDYAPTN [SeqRBMlowT_5048]	No
SDEAGPRIVITATELP [SeqRBMlowT_4492]	No
TFWTNPQYKITLEEDD [SeqRBMlowT_9018]	No

---

System: GST-tagged Cn
Assay: PEPperPRINT peptide microarray binding assay with GST-tagged Cn
Settings: GST-tagged Cn, max over the chip spots listed under Location on chip
Excerpt: We then estimated in-silico the binding strength of the various peptides to Cn by template-based docking followed by flexible backbone refinement using Modeller and PepCrawler (Figs 4 and S4). […] Fig 4 Medium-throughput filtering by structural modeling and microarray screening. […] (f) Scatter plot of the sequence likelihood (normalized by length, higher is better) against fluorescence level (higher is better, see Methods for details of the data analysis). […]
Chip Fluorescence (max) below 0.8 gives No; Chip Fluorescence (max) at or above it gives Yes.

Record sequence	Measured target	Category
TFWSNPQFTITLAEPD [SeqRBMlowT_8092]	GST-tagged Cn	No
LNAIQEAQDKTDIRNK [Seqshuffled_9749]	GST-tagged Cn	No
KHATSPRINITQTSTL [SeqRBM_2048]	GST-tagged Cn	No
AQSSQPPISTKYDARG [Seqshuffled_9482]	GST-tagged Cn	No
ADEANPEITVTPAELP [SeqRBMlowT_396]	GST-tagged Cn	No
GTESTPSVVVHVCDSD [SeqRCN1_Desmodus_rotundus]	GST-tagged Cn	No
RSYINPFVTFLDHGHR [SeqSFB3_Blumeria_graminis]	GST-tagged Cn	No
RQPGTFLLTLRGHKKQ [SeqRBMlowT_6149]	GST-tagged Cn	Yes
RAYINPFMMFRSGGNK [SeqSFB3_Cordyceps_militaris]	GST-tagged Cn	No
HSKLIPKLSISSPVHH [SeqRBMlowT_1731]	GST-tagged Cn	No
AQMAPPAINIDFAPTN [SeqRBMlowT_7215]	GST-tagged Cn	No
TFWTNPQFRLKLEDPD [SeqRBMlowT_699]	GST-tagged Cn	Yes
SQAKSPRIEITAYTHV [SeqRBM_8514]	GST-tagged Cn	Yes
PMLVFRALRIHESPLP [Seqshuffled_9670]	GST-tagged Cn	Yes
PVHTIHRVSLQDAGKY [SeqCEACAM5_Aedes_aegypti]	GST-tagged Cn	Yes
QASKNSNMQRSFHVNA [Seqshuffled_9426]	GST-tagged Cn	Yes
LKDEVPEVRLNIISSL [SeqRBMlowT_4107]	GST-tagged Cn	Yes
TFWTNPQYKIKLEEPD [SeqRBMlowT_46]	GST-tagged Cn	Yes
KTGMATDMQFNPIEQH [Seqshuffled_2687]	GST-tagged Cn	No
TFWTNPQYRITLTDVD [SeqRBMlowT_7188]	GST-tagged Cn	No
TFWTNPQFKVKLEEPD [SeqRBMlowT_221]	GST-tagged Cn	No
RQPGQALLTLRGHSAS [SeqRBMlowT_5869]	GST-tagged Cn	No
DSLYQEVLGIRSFSLS [SeqRBM_8930]	GST-tagged Cn	No
GTDTTPSVVVHVCEDD [SeqRBMlowT_1211]	GST-tagged Cn	Yes
RQPGTLGLTLEGHSNS [SeqRBM_7786]	GST-tagged Cn	No
SPSIVANADLVVPYSE [SeqRBM_1237]	GST-tagged Cn	No
